Target: prolyl endopeptidase (PEP)
Assay: PEP inhibitory activity assay (modified Yoshimoto et al. method, Z-Gly-Pro-pNA substrate)
Format: biochemical
Details: read-out: PEP inhibitory activity IC50; mean ± SEM, repeated thrice; 30° C., pH 7.0
recordedMetric: IC50 (µM)

compound="C/C=C/c1ccc(OC)cc1 [trans-anethole, (E)-1-Methoxy-4-(1-propenyl) benzene]" recordedmetric=IC50 unitdescriptor=µM testresult=5.7

====

Biological target: prolyl endopeptidase (PEP)
pKi: −log10 of the molar value.
recordedMetric: pKi

compound="C/C=C/c1ccc(OC)cc1 [trans-anethole, (E)-1-Methoxy-4-(1-propenyl) benzene]" testresult=5.25

All figures here come from patent US20220304946A1.
